system: OVCAR-5 ovarian; assay: NCI tumour cell line growth inhibition, 48 h
property: TGI

Solved entries (count: 4):
COc1cccc(C2c3cc4c(cc3OC(N3CCCC3)C2C)OCO4)c1 (centres undefined) = 82.1 µM
COc1cccc(NCc2nnc(Nc3ccc(Cl)cc3)c3ccccc23)c1 = 11.8 µM
C/C(=N\NC(=S)N1CC2CCC(CC2)C1)c1ccncn1 = 5.44 µM
COc1ccc2c(c1)CCCc1cn[nH]c1-2 = > 100 µM

Ask: TGI of O=[N+]([O-])c1ccccc1N=Nc1c(O)sc2ccccc12 on OVCAR-5 ovarian?
Result: > 100 µM

Ask: TGI of N#CC1=C(N2CCCC2)NC(=O)CC1=O on OVCAR-5 ovarian?
Result: > 100 µM

Ask: TGI of O=C(O)C1C(C(=O)O)C(C(=O)O)C1C(=O)O (centres undefined) on OVCAR-5 ovarian?
Result: > 100 µM

Ask: TGI of Cc1cccc(N2C(=O)C(Cl)=C(Cl)C2=O)c1 on OVCAR-5 ovarian?
Result: > 100 µM

Ask: TGI of CC(C(=O)N1c2ccccc2Sc2ccccc21)N1c2ccccc2Sc2ccccc21 (centres undefined) on OVCAR-5 ovarian?
Result: > 100 µM

====

Let's look at some compounds and their measured TGI.
system: EKVX NSCLC; assay: NCI tumour cell line growth inhibition, 48 h

Solved entries (count: 8):
CC(C)CCN=c1cc2n(-c3ccc(Cl)cc3)c3ccccc3nc-2cc1Nc1ccc(Cl)cc1 = > 53 µM
O=C(C[C@@H](C(=O)NCc1cccc(C(F)(F)F)c1)N1C(=O)[C@@H](N2C(=O)OC[C@@H]2c2ccccc2)[C@H]1/C=C/c1ccccc1)NC1CCN(Cc2ccccc2)CC1 = 41.7 µM
COC(=O)C(=O)C(C(=O)C=C(C)C)C(=O)C(=O)Nc1ccc(Cl)cc1C (configuration not stated) = > 100 µM
O=P(c1ccccc1)(c1ccccc1)C(NCc1ccccc1)c1ccc(F)cc1 (configuration not stated) = 25.4 µM
CCOC(=O)C(=C(SC)SC)c1nn2c(=O)cc(C)nc2s1 = 53.8 µM
O=[N+]([O-])c1ccc2nnnn2c1 = > 100 µM
CN(C)CC(CN(C)C)c1ccccn1 = > 100 µM
COc1ccc(C(=O)/C=C/c2cccnc2Nc2cc(OC)c(OC)c(OC)c2)cc1 = 19.2 µM

Ask: I have this compound here, O=c1[nH]c(=O)n(C2CC(O)C(CS)O2)cc1F (configuration not stated) , and I need its recorded TGI.
Result: > 100 µM

Ask: I have this compound here, Clc1cccc(Cl)c1C1SCC2=Nc3ccccc3CN21 (configuration not stated) , and I need its recorded TGI.
Result: 73.6 µM

Ask: I have this compound here, CCCNC(=S)N/N=C(\C)c1ccccn1 , and I need its recorded TGI.
Result: > 100 µM

====

tested on: MOLT-4 leukemia; test: NCI tumour cell line growth inhibition, 48 h; in the data active = GI50 below about 0.43 µM; inactive = the rest
Would you mind answering with one of these outcomes? y for active, n for inactive

Reference set, count: 5
CC[C@H](C)[C@H](NC(=O)[C@H]1CCCCN1C)C(=O)N(C)[C@H](CCc1nc(C(=O)N[C@@H](Cc2ccccc2)C[C@H](C)C(=O)OC)cs1)C(C)C = n
NC(N)=NC(N)=Nc1cc2ccccc2c2ccccc12 = n
Cc1cc(C)cc(Nc2cc(C)nc3nc(C(F)(F)F)nn23)c1 = n
Cn1cc(C2=C(c3cn(C)c4c(N)cccc34)C(=O)NC2=O)c2ccccc21 = n
COc1ccc(/C(=N/Nc2ccc([N+](=O)[O-])cc2)Sc2cc(Cl)c(C)cc2S(N)(=O)=O)cc1 = n

Ask: Assay result, entry C[C@]12CC[C@@H]3c4ccc(O)cc4CC[C@H]3[C@@H]1CC[C@@H]2NS(=O)(=O)c1ccc(C(F)(F)F)cc1 — outcome?
Result: n

Ask: Assay result, entry CCCNC(=S)N/N=C(\C)c1ccccn1 — outcome?
Result: y

====

system: HOP-92 NSCLC; assay: NCI tumour cell line growth inhibition, 48 h
Let's look at some compounds and their measured TGI.

Solved entries (count: 4):
NS(=O)(=O)c1nnc(NC(=O)c2ccccc2)s1 = > 100 µM
O=C(O)C(Sc1ccc(Cl)cc1)Sc1ccc(Cl)cc1 = 68.2 µM
S=C1Cc2c([nH]c3ccccc23)-c2ccccc2N1 = > 100 µM
CO/N=C(\C(=O)Nc1cncs1)c1csc(NC(c2ccccc2)(c2ccccc2)c2ccccc2)n1 = > 10 µM

Next item in the queue.
Ask: I have this compound here, CC(=O)O[C@@H]1C=C(C)[C@H](CBr)O[C@@]2(C)CC[C@H](Br)C(C)(C)[C@H]12 , and I need its recorded TGI.
Result: > 100 µM

====

system: SW-620 colon; test: NCI tumour cell line growth inhibition, 48 h; in the data active = GI50 below about 0.43 µM; inactive = the rest
Would you mind answering with one of these outcomes? Y for active, N for inactive

Reference set, count: 6
NC(N)=NC(N)=Nc1cc2ccccc2c2ccccc12 = N
CC(C)CSc1nc(Nc2ccccc2)c(C#N)c(-c2ccc(F)cc2)n1 = N
COc1ccc(C2CC(=O)c3c(OC)cc(OC)cc3O2)cc1 (configuration not stated) = N
CCCCCCCCCCC(O)C1CCC(C2CCC(C(O)CCCCC(O)CCCCCC(O)CC3=CC(C)OC3=O)O2)O1 (configuration not stated) = N
O=C(CCCSc1nc(-c2ccc(Cl)cc2)cc(-c2ccc(Cl)cc2)n1)NO = N
Cn1cc(-c2csc(-c3cccc(F)c3)n2)c2cccnc21 = N

Now look at this entry.
Ask: Assay result, entry CCOC(=O)c1c(C)n(Cc2ccc(OC)cc2)c2c1cc(O)c1[nH]c3c(c12)CCCC3 — outcome?
Result: N

====

test system: ACHN renal; assay: NCI tumour cell line growth inhibition, 48 h; in the data active = GI50 below about 0.43 µM; inactive = the rest
Would you mind answering with one of these outcomes? 1 (yes) = active, 0 (no) = inactive

Reference set, count: 2
CC12CCCC(CC(=O)c3[nH]c4ccccc4c31)C2 (centres undefined) = 0 (no)
O=C(CCCSc1nc(-c2ccc(Cl)cc2)cc(-c2ccc(Cl)cc2)n1)NO = 1 (yes)

Ask: Assay result, entry NC(N)=NC(N)=Nc1cc2ccccc2c2ccccc12 — outcome?
Result: 0 (no)

Ask: Assay result, entry O=C(C[C@@H](C(=O)NCc1cccc(C(F)(F)F)c1)N1C(=O)[C@@H](N2C(=O)OC[C@@H]2c2ccccc2)[C@H]1/C=C/c1ccccc1)NC1CCN(Cc2ccccc2)CC1 — outcome?
Result: 0 (no)

====

tested on: SNB-19 CNS; assay: NCI tumour cell line growth inhibition, 48 h
property: TGI

Cc1nnc([C@@]2(C)CC[C@H]3[C@@H](CC=C4C[C@@H](O)CC[C@@]43C)[C@@H]2CC#N)o1 = > 100 µM
CCOC(=O)N/N=C(/N)Cc1ccccc1 = > 100 µM

Ask: I have this compound here, Brc1ccc2c(-c3nc(-c4c[nH]c5ccc(Br)cc45)cs3)c[nH]c2c1 , and I need its recorded TGI.
Result: 13 µM

====

test system: HT29 colon; test: NCI tumour cell line growth inhibition, 48 h; in the data active means GI50 below about 0.43 µM; inactive means the rest
Would you mind answering with one of these outcomes? active, inactive

CC(C)CSc1nc(Nc2ccccc2)c(C#N)c(-c2ccc(F)cc2)n1 = inactive
COc1ccc(C2CC(=O)c3c(OC)cc(OC)cc3O2)cc1 (centres undefined) = inactive
COc1cc(Cn2c(-c3ccccc3)cc3c2-c2oncc2CC3)cc(OC)c1OC = inactive
CCCCn1c(-c2ccc(C(=O)O/N=C(\N)c3ccc(OC)cc3)cc2)nc(-c2ccccc2)c1-c1ccccc1 = inactive
Cn1cc(-c2csc(-c3cccc(F)c3)n2)c2cccnc21 = inactive
C[C@]12CC[C@@H]3c4ccc(Oc5nc(N6CC6)nc(N6CC6)n5)cc4CC[C@H]3[C@@H]1CCC2=O = inactive

Now look at this entry.
Ask: Assay result, entry CCCCC/C=C/C/C=C/CCCCCCCC1=NC(C)(C)CN1C(C)C — outcome?
Result: inactive

====

system: SF-268 CNS; experiment: NCI tumour cell line growth inhibition, 48 h; in the data active = GI50 below about 0.43 µM; inactive = the rest
Would you mind answering with one of these outcomes? y = active, n = inactive

Reference set, count: 3
CCCCCCCCCCC(O)C1CCC(C2CCC(C(O)CCCCC(O)CCCCCC(O)CC3=CC(C)OC3=O)O2)O1 (stereo unspecified) = n
N#C/C(C(=S)Nc1ccccc1)=C1/NN=C2c3ccccc3C(=O)NN21 = n
COc1ccc(S(=O)(=O)N(Cc2ccc3c(n2)C=CC(C)(C)O3)C2CCC2)cc1OC = y

Ask: Assay result, entry Cc1cc(C)cc(Nc2cc(C)nc3nc(C(F)(F)F)nn23)c1 — outcome?
Result: n

Ask: Assay result, entry COc1ccc(-n2c(SCc3cc(OC)c(OC)c(OC)c3)nc3ccc(C)cc3c2=O)cc1 — outcome?
Result: n

Ask: Assay result, entry CC[C@H](C)[C@H](NC(=O)[C@H]1CCCCN1C)C(=O)N(C)[C@H](CCc1nc(C(=O)N[C@@H](Cc2ccccc2)C[C@H](C)C(=O)OC)cs1)C(C)C — outcome?
Result: n

Ask: Assay result, entry COc1cccc(NCc2nnc(Nc3ccc(Cl)cc3)c3ccccc23)c1 — outcome?
Result: n

Ask: Assay result, entry COc1cc(Cn2c(-c3ccccc3)cc3c2-c2oncc2CC3)cc(OC)c1OC — outcome?
Result: n

Ask: Assay result, entry COc1cc2c3c(n(CCCCl)c(=O)c2cc1OC)-c1ccccc1C3=O — outcome?
Result: n

Ask: Assay result, entry COc1cc2c3c(n(CCCBr)c(=O)c2cc1OC)-c1ccc(NC(C)=O)cc1C3=O — outcome?
Result: n

Ask: Assay result, entry Cc1cc(C2CCCCC2)n(O)c(=O)c1 — outcome?
Result: n
